Test system: HEK-293T
Experiment: Multiplex assay against HEK293T
Type: toxicity, cell-based
Settings: human, 12 h, 1 µM, compound concentration 1 uM, replicate 1
readoutKind: Population Hoechst High Intensity Objects (%)

{"compound": "Cl.Clc1ccc2nsnc2c1NC1=NCCN1 [TIZANIDINE HYDROCHLORIDE]", "quantitativeResult": 8}
{"compound": "CN1CCN2c3ncccc3Cc3ccccc3C2C1 (stereo not given)", "quantitativeResult": 5}
{"compound": "CN(C)c1ccnc2sc3c(=O)n(N4CCCCCC4)cnc3c12", "quantitativeResult": 4}
{"compound": "Cc1ccccc1C(=O)Nc1ccc(C(=O)N2CCCC(N(C)C)c3ccccc32)cc1.Cl (stereo not given)", "quantitativeResult": 8}
{"compound": "CN(C)CCCc1cc(C(=O)Nc2ccc(-c3ccncc3)cc2)ccc1O.Cl.Cl", "quantitativeResult": 9}
{"compound": "COc1cc(NC(=O)CCN2CCC(OC(=O)Nc3ccccc3-c3ccccc3)CC2)c(Cl)cc1CNC[C@H](O)c1ccc(O)c2[nH]c(=O)ccc12", "quantitativeResult": 7}
{"compound": "COc1ccccc1N1CCN(CCCCNC(=O)c2ccc3ccccc3c2)CC1.Cl", "quantitativeResult": 6}
{"compound": "Cc1ccc(C(C)(O)c2nc3ccccc3s2)c(C)c1 (stereo not given)", "quantitativeResult": 4}
{"compound": "Oc1c(CN2CCN(c3ccccn3)CC2)cc(Cl)c2cccnc12", "quantitativeResult": 7}
{"compound": "CCOc1c2c(c(OCC)c3ncccc13)CN(c1ccc(CS(=O)(=O)NC(=O)Cc3ccccc3OC)cc1C)C2=O", "quantitativeResult": 6}
{"compound": "O=C(NCCO)c1cccc(-c2cc(Nc3ccc(OC(F)(F)F)cc3)ncn2)c1", "quantitativeResult": 8}
{"compound": "Cc1ccc(F)cc1C(=O)Nc1ccc(C(=O)N2Cc3cccn3Cc3ccccc32)c(Cl)c1", "quantitativeResult": 7}
{"compound": "CSc1ccccc1N1CCN(CCCCCC(=O)NC2CCCc3ccccc32)CC1.Cl (stereo not given)", "quantitativeResult": 8}
{"compound": "C[C@H]1[C@H]2CC[C@H]3[C@@H]4CC=C5C[C@@H](N(C)C)CC[C@]5(C)[C@H]4CC[C@]23CN1C", "quantitativeResult": 6}
{"compound": "CC(C)(C)c1ccc(S(=O)(=O)Nc2ccc(Cl)cc2C(=O)c2cc[n+]([O-])cc2)cc1", "quantitativeResult": 7}

----------
Test system: U2OS
Assay: Multiplex assay against U2OS
Format: toxicity, cell-based
Details: human, 12 h, 10 µM, compound concentration 10 uM, replicate 1

{"compound": "CNC[C@H](O)c1ccc(O)c(O)c1 [EPINEPHRINE]", "testedSystem": "U2OS", "Population Apoptotic (%)": 92}
{"compound": "CSCC[C@H](NC=O)C(=O)N[C@@H](CC(C)C)C(=O)N[C@@H](Cc1ccccc1)C(=O)O", "testedSystem": "U2OS", "Population Apoptotic (%)": 69}
{"compound": "C[C@@H]1C[C@H]2[C@@H]3CCC4=CC(=O)C=C[C@]4(C)[C@@]3(F)[C@@H](O)C[C@]2(C)[C@@]1(O)C(=O)CO", "testedSystem": "U2OS", "Population Apoptotic (%)": 80}
{"compound": "CC1(COc2ccc3c(c2)ncn3-c2ccc3cccc(N4CCC(N)CC4)c3n2)COC1", "testedSystem": "U2OS", "Population Apoptotic (%)": 81}
{"compound": "O=C(NCC(=O)N1CC[C@H](N[C@H]2CC[C@@](O)(c3ccc(-c4ncccn4)cn3)CC2)C1)c1cccc(C(F)(F)F)c1", "testedSystem": "U2OS", "Population Apoptotic (%)": 68}
{"compound": "CC(=O)NCCc1c(Cc2ccccc2)[nH]c2ccccc12", "testedSystem": "U2OS", "Population Apoptotic (%)": 81}
{"compound": "O=C(O)Cc1ccccc1Nc1c(Cl)cccc1Cl", "testedSystem": "U2OS", "Population Apoptotic (%)": 75}
{"compound": "CSc1ccccc1N1CCN(CCCCCC(=O)NC2CCCc3ccccc32)CC1.Cl (stereo not drawn)", "testedSystem": "U2OS", "Population Apoptotic (%)": 70}
{"compound": "CCCn1c(=O)c2[nH]c(C3CCCC3)nc2n(CCC)c1=O", "testedSystem": "U2OS", "Population Apoptotic (%)": 68}
{"compound": "COc1c(C)cc(NC(=O)c2nn(Cc3ccc(F)cc3)c3c2CN(C(=O)c2ccc[nH]2)C[C@]3(C)C(N)=O)cc1C", "testedSystem": "U2OS", "Population Apoptotic (%)": 33}
{"compound": "Cc1ccc(F)cc1C(=O)Nc1ccc(C(=O)N2Cc3cccn3Cc3ccccc32)c(Cl)c1", "testedSystem": "U2OS", "Population Apoptotic (%)": 59}
{"compound": "Cc1ccc(/C(=C\\CN2CCCC2)c2ccccn2)cc1", "testedSystem": "U2OS", "Population Apoptotic (%)": 87}
{"compound": "O=S(=O)(c1ccccc1)c1cnc2c(N3CCNCC3)cccc2c1 [INTEPIRDINE]", "testedSystem": "U2OS", "Population Apoptotic (%)": 58}
{"compound": "C[C@H]1[C@H]2CC[C@H]3[C@@H]4CC=C5C[C@@H](N(C)C)CC[C@]5(C)[C@H]4CC[C@]23CN1C", "testedSystem": "U2OS", "Population Apoptotic (%)": 55}
{"compound": "CCCC(CCC)C(=O)O", "testedSystem": "U2OS", "Population Apoptotic (%)": 77}
{"compound": "c1cc(OCCCN2CCCCC2)ccc1CN1CCCCC1", "testedSystem": "U2OS", "Population Apoptotic (%)": 73}
{"compound": "Cl.Clc1ccc2nsnc2c1NC1=NCCN1 [TIZANIDINE HYDROCHLORIDE]", "testedSystem": "U2OS", "Population Apoptotic (%)": 77}
{"compound": "CN1CCN2c3ncccc3Cc3ccccc3C2C1 (stereo not drawn)", "testedSystem": "U2OS", "Population Apoptotic (%)": 73}

----------
Here, each record is paired with measured Population Pyknosed Nuclei (%) data.
System: Fibroblast
Experiment: Multiplex assay against human fibroblast
Format: toxicity, cell-based
Conditions: 12 h, 1 µM, compound concentration 1 uM, replicate 2
readoutKind: Population Pyknosed Nuclei (%)

{"compound": "CN(C)c1ccnc2sc3c(=O)n(N4CCCCCC4)cnc3c12", "readoutKind": "Population Pyknosed Nuclei (%)", "result": "19%"}
{"compound": "CN(C)CCCc1cc(C(=O)Nc2ccc(-c3ccncc3)cc2)ccc1O.Cl.Cl", "readoutKind": "Population Pyknosed Nuclei (%)", "result": "24%"}
{"compound": "CCOc1c2c(c(OCC)c3ncccc13)CN(c1ccc(CS(=O)(=O)NC(=O)Cc3ccccc3OC)cc1C)C2=O", "readoutKind": "Population Pyknosed Nuclei (%)", "result": "19%"}
{"compound": "O=C(NCC(=O)N1CC[C@H](N[C@H]2CC[C@@](O)(c3ccc(-c4ncccn4)cn3)CC2)C1)c1cccc(C(F)(F)F)c1 [PF-4136309]", "readoutKind": "Population Pyknosed Nuclei (%)", "result": "21%"}

----------
Tested on: HEK-293T
Assay: Multiplex assay against HEK293T
Assay type: toxicity, cell-based
Conditions: human, 24 h, 10 µM, compound concentration 10 uM, replicate 2
We use 40% as the dividing line for Population Apoptotic (%): on or above the line is Yes, below is No.

{"compound": "CCNC1(C(N)=O)CCN(c2ncnc3c2nc(-c2ccccc2Cl)n3-c2ccc(Cl)cc2)CC1", "testedSystem": "HEK-293T", "assignedClass": "Yes"}
{"compound": "c1cc(OCCCN2CCCCC2)ccc1CN1CCCCC1", "testedSystem": "HEK-293T", "assignedClass": "Yes"}
{"compound": "Oc1c(CN2CCN(c3ccccn3)CC2)cc(Cl)c2cccnc12", "testedSystem": "HEK-293T", "assignedClass": "Yes"}
{"compound": "N#Cc1c(N)nc(SCc2csc(-c3ccc(Cl)cc3)n2)c(C#N)c1-c1ccc(OCCO)cc1", "testedSystem": "HEK-293T", "assignedClass": "Yes"}
{"compound": "Cc1ccc(/C(=C\\CN2CCCC2)c2ccccn2)cc1", "testedSystem": "HEK-293T", "assignedClass": "No"}
{"compound": "CN1CCN(c2nc3cc(C(F)(F)F)ccc3n3cccc23)CC1.O=C(O)/C=C\\C(=O)O.O=C(O)/C=C\\C(=O)O", "testedSystem": "HEK-293T", "assignedClass": "Yes"}
{"compound": "CCCN1CCC[C@@H]2Cc3n[nH]cc3C[C@H]21.Cl [QUINPIROLE HYDROCHLORIDE]", "testedSystem": "HEK-293T", "assignedClass": "Yes"}
{"compound": "COc1cc(NC(=O)CCN2CCC(OC(=O)Nc3ccccc3-c3ccccc3)CC2)c(Cl)cc1CNC[C@H](O)c1ccc(O)c2[nH]c(=O)ccc12", "testedSystem": "HEK-293T", "assignedClass": "Yes"}
{"compound": "O=C1COc2nccc(-c3ccccc3F)c2CN1Cc1cc(C(F)(F)F)cc(C(F)(F)F)c1", "testedSystem": "HEK-293T", "assignedClass": "No"}
